Reported TGI values for the following molecules.
system: CAKI-1 renal; assay: NCI tumour cell line growth inhibition, 48 h
Please respond with the number in µM and leave the unit unwritten.

Recorded TGI, per entry:
molecule	measured quantity	numeric readout
O=C(Nc1ccc(-n2cc(-c3ccncc3)c(-c3ccc(O)c(Cl)c3)n2)cc1)Nc1cc(C(F)(F)F)cc(C(F)(F)F)c1	TGI	12.8
CC1(C)CCC[C@@]2(C)C1CC[C@@]1(CO)O[C@H](C3=CC(=O)OC3O)C[C@H]12 (some centres undefined)	TGI	28.6
CCCC(O)[C@@]1(CC)CC(C)C(O)(C2(C)C[C@H](C)[C@@H](C(CC)C(=O)C(C)[C@@H](O)[C@H](C)C3OC(O)(C(CC)C(=O)O)[C@@H](C)C(O)C3CC)O2)O1 (some centres undefined)	TGI	5.05
CCc1ccc(Oc2c(-c3ccc(OCc4ccc(Cl)cc4)cc3O)nn(C)c2C(F)(F)F)cc1	TGI	7.25
OCCNc1nc2ccccc2c2[nH]c3ccccc3c12	TGI	8.9

Which TGI reading was recorded for the molecule CCOC(=O)c1cn(C)c2c(OC)c3ccccc3c(OC)c2c1=O ?
76.8

# input molecule: COS(=O)c1cc(Cl)cc(Cl)c1OC(=O)CSSCC(=O)Oc1c(Cl)cc(Cl)cc1S(=O)OC (centres undefined) ; wanted: its TGI
63.1

Param item = COC(=O)CCC(C)[C@H]1CCC2C3CC[C@@H]4CC5(CC[C@]4(C)C3C[C@H](OC(C)=O)[C@@]21C)OOC1(CCCCC1)OO5 (some centres undefined) ; retrieve measured TGI.
37

Would you kindly share the measured TGI for O=[N+]([O-])c1cccnc1S(=O)(=O)c1ccccc1 ?
6.98

Entry under review: C/C(=N\NC(=S)N1CCC1)c1ccccn1 . Reported TGI?
75.3

* * *

Measured TGI by item
tested on: NCI/ADR-RES ovarian; assay: NCI tumour cell line growth inhibition, 48 h

Some compounds with known TGI results, for comparison:
compound	TGI
Cn1c(CO)ccc1-c1ccc(-c2ccc(CO)[se]2)[se]1	> 100 µM
NC(=O)CSc1nc2ccccc2c(=O)n1N	> 100 µM
Cc1nnc(SCc2nc(C#N)c(C#N)nc2CSc2nnc(C)s2)s1	> 92.2 µM
O=[N+]([O-])/C=C/c1cc(Cl)c(/C=C/[N+](=O)[O-])cc1Cl	> 25 µM
COc1ccc(C(=CCC(C)C2CCC3[C@@H]4C(OC(C)=O)CC5CC(OC(C)=O)CC[C@]5(C)C4CC(OC(C)=O)[C@]23C)c2ccc(OC)cc2)cc1 (stereo partly specified)	> 100 µM

Record request: TGI value, item O=[N+]([O-])/C=C/c1ccc2ccccc2c1
> 28 µM

Request the reported TGI associated with OCc1ccc(-c2ccc(-c3ccc(CO)o3)o2)o1
> 100 µM

Record request: TGI value, item COc1ccc(O[C@H](CO)C[C@@H]2COC(C)(C)O2)cc1
> 100 µM

Record request: TGI value, item Cc1n[nH]c(=O)n1-n1cccc1
> 100 µM

Can you share its TGI? I mean this compound: COc1cc2c(cc1O)NC(=O)[C@@H]1C[C@@H](O)CN1C2=O
> 100 µM

Can you share its TGI? I mean this compound: CC(=O)c1c(-c2ccc(Cl)cc2)c(C#N)c(=S)n(C2OC(CO)C(O)C(O)C2O)c1C (stereo unspecified)
> 100 µM

* * *

# TGI per entry
test system: ACHN renal; test: NCI tumour cell line growth inhibition, 48 h

compound	TGI
COc1ccc(/C(C=O)=C(\Cl)c2ccc(OC)c(OC)c2)cc1	> 100 µM
Cc1ccc(S(=O)(=O)NC(=O)Nc2ccc(C(=O)O)cc2)cc1	> 100 µM
CO[C@H]1C(=O)[C@]2(C)[C@@H](OC)C[C@H]3OC[C@@]3(OC(C)=O)[C@H]2[C@H](OC(=O)c2ccccc2)[C@]2(O)C[C@H](OC(=O)[C@H](O)[C@@H](NC(=O)OC(C)(C)C)c3ccccc3)C(C)=C1C2(C)C	> 100 µM
N#Cc1ccccc1Sc1ccccc1N	> 100 µM
COc1c(OC2OC(CO)C(O)C(O)C2O)cc2c(c1OC)-c1ccc(OC)c(=O)cc1C(NC(C)=O)CC2 (stereo unspecified)	> 100 µM

Next item in the queue.
Give the measured TGI of CCOC(=O)c1cn(C)c2c(OC)c3ccccc3c(OC)c2c1=O .
> 100 µM

* * *

Parameter: TGI. Scope: all listed entries.
system: UACC-62 melanoma; assay: NCI tumour cell line growth inhibition, 48 h

Completed entries (count: 3):
mol smiles	result
NC(=O)CSc1nc2ccccc2c(=O)n1N	> 100 µM
Cc1ccc(C(=O)Nc2ccc(CP(=O)(O)O)cc2CP(=O)(O)O)cc1N	> 100 µM
C[n+]1c2ccccc2n2c3ccccc3c(NCCCn3ccnc3)c(C#N)c21	17.6 µM

Query compound follows.
# TGI lookup, item CC1(C)C(=O)/C(=C/c2ccccc2)C(C)(C)C1(C)C
> 100 µM

* * *

system: HOP-18 NSCLC; assay: NCI tumour cell line growth inhibition, 48 h
// reported TGI per item

Example entries and their recorded answers appear below.
molecule	result
N#Cc1c(-c2ccccc2)c(-c2ccccc2)cc2c(=O)c3ccc(Cl)cc3[nH]c12	> 100 µM
CCCCCCCCCC1CC(=O)OC23CCCC(=O)C12O3 (stereo not given)	> 100 µM
C/C(=N\NC(=S)N1CCC1)c1ccccn1	> 100 µM

Please give the measured TGI for this molecule: CC(C)(C)OC(=O)N[C@H]1CC(=O)c2ccccc2N(CC(=O)O)C1=O
> 100 µM

Any idea what its TGI is? The molecule is CCc1c(OC(C)=O)c2c(NC3OC(COC(C)=O)C(OC(C)=O)C(OC(C)=O)C3OC(C)=O)nc(SC)nc2oc1=O (stereo not given)
> 100 µM

* * *

test system: M14 melanoma; assay: NCI tumour cell line growth inhibition, 48 h
measured quantity: TGI

compound	TGI
[O-][n+]1c2cccc(O)c2[n+]([O-])c2cccc(O)c21	> 100 µM

Record request: TGI value, item COCOC1CCCC[C@@]1(OCCOCCO[C@@]1(c2ccccc2)CCCC[C@H]1OCOC)c1ccccc1 (stereo partly drawn)
> 100 µM

Could you share which TGI value was measured for Cc1cc2nc(N3C(=O)/C(=C/Cc4ccco4)N=C3c3ccccc3)sc2cc1C ?
> 100 µM

* * *

test system: OVCAR-3 ovarian; test: NCI tumour cell line growth inhibition, 48 h
measured quantity: TGI

Record excerpt, results attached:
compound	target of assay	TGI
OCCN1CCN(c2nc(N3CCCC3)c3nc(Cl)c(NCc4ccccc4)nc3n2)CC1	OVCAR-3 ovarian	23.5 µM
OCC1OC(OC2(CO)OC(CO)C(O)C2O)C(O)C(O)C1O (stereo unspecified)	OVCAR-3 ovarian	> 100 µM
NC1=NC(c2ccccc2Cl)c2c(n[nH]c2N)N1 (stereo unspecified)	OVCAR-3 ovarian	> 100 µM
N#CN1CC[C@H](C(=O)Nc2ncc(-c3ccccc3)s2)C1	OVCAR-3 ovarian	1.44 µM
Nc1c(C(=O)O)c2ccc([N+](=O)[O-])cc2c(=O)n1-c1nc2ccccc2s1	OVCAR-3 ovarian	> 100 µM

Missing value: TGI, OVCAR-3 ovarian, entry COc1ccc(O[C@H](CO)C[C@@H]2COC(C)(C)O2)cc1 . Fill in?
> 100 µM

Identify the measured TGI of N#CC(C(=O)Nc1ccccc1)C1=C(Cl)C(=O)c2ccccc2C1=O (stereo unspecified) for OVCAR-3 ovarian.
34.5 µM

Hi! What's the reported TGI for O=C(N/N=C/c1ccccc1)c1c(F)c(F)c(F)c(F)c1F on OVCAR-3 ovarian?
> 100 µM

Form field: TGI recorded for CC(=O)C1(C(=O)C(=[N+]=[N-])S(=O)(=O)c2ccccc2)CC1 with OVCAR-3 ovarian (enter value)
> 100 µM

# query: TGI | item CC(C)(C)OC(=O)N[C@H]1CC(=O)c2ccccc2N(CC(=O)O)C1=O | system: OVCAR-3 ovarian
> 100 µM

Any idea what TGI came out for O=C(/C=C/c1ccccc1)c1cc(CN2CCOCC2)c(O)c(CN2CCOCC2)c1 on OVCAR-3 ovarian?
29.4 µM

* * *

system: SR leukemia; assay: NCI tumour cell line growth inhibition, 48 h
Below is a list of entries, each paired with its recorded TGI value.

molecule	measured quantity	result
CCOC(=O)C1=C(C)N(NC(N)=O)C2(N)N(NC(N)=O)C(C)=C(C(=O)OCC)C12C#N (configuration not stated)	TGI	> 100 µM
O=C(N/N=C/c1ccccc1)c1c(F)c(F)c(F)c(F)c1F	TGI	> 100 µM
Cc1cccc(C)c1NC(=O)CCCC(=O)C(C#N)c1ccccc1 (configuration not stated)	TGI	> 100 µM
C[n+]1c2ccccc2n2c3ccccc3c(NCCCn3ccnc3)c(C#N)c21	TGI	> 100 µM

Which measured TGI value corresponds to COc1ccc(C2C(=O)c3ccc(OC)cc3OC2c2cccnc2)cc1 (configuration not stated) ?
> 100 µM

Give the measured TGI of CCc1ccc(Oc2c(-c3ccc(OCc4ccc(Cl)cc4)cc3O)nn(C)c2C(F)(F)F)cc1 .
3.76 µM

Name the recorded TGI for C[n+]1cn(CC(=O)c2ccccc2)c(C(N)=O)c1N .
> 100 µM

What value of TGI has been reported for the following molecule? O=C(/C=C\c1ccccc1)Oc1ccc(/C=C2\CCC/C(=C\c3ccc(OC(=O)/C=C\c4ccccc4)cc3)C2=O)cc1
> 100 µM

Entry under review: O=C1c2ccccc2-c2c1c1ccccc1c(=O)n2CCCNCCNCCCn1c2c(c3ccccc3c1=O)C(=O)c1ccccc1-2 . Reported TGI?
> 100 µM

Given the entry COC1=C(OC)C(=O)C(Cc2c(Cl)nc3sccn23)=C(C)C1=O , report its measured TGI.
18.5 µM

# input molecule: CC(C)=CC1C(C(=O)OCc2cc3c(cc2Cl)OCO3)C1(C)C (configuration not stated) ; wanted: its TGI
33.4 µM

For the molecule O=C(CCCCN1CCN(CCCCC(=O)Nc2ccccc2C#C/C=C\C#Cc2ccccc2C(F)(F)F)CC1)Nc1ccccc1C#C/C=C\C#Cc1ccccc1C(F)(F)F , what TGI is on record?
16.6 µM

Give its TGI value. Item: O=C1Nc2ccc(-c3cccnc3)cc2/C1=C/c1cc(Br)c(O)c(Br)c1
> 25 µM

Report TGI for Cc1nc2sccn2c1C(=O)NNC(N)=S please.
> 100 µM

Can you look up the measured TGI of C#COc1cccc(Nc2ncnc3cc(NC(=O)[C@@H](C)Cl)ccc23)c1 for me?
> 62.5 µM

Which TGI reading was recorded for the molecule NC1CCC2(O)c3ccccc3C2C1 (configuration not stated) ?
> 100 µM

Endpoint output: TGI of COc1ccc(-c2cnc(-c3ccncc3-c3cccc(OC)c3)o2)cc1 . Value?
13.5 µM
